# System: giant foxtail (Setaria faberii)
# method-description: Test A postemergence
# Format: in vivo
# condition-set: Setaria faberi, post-emergence, 240 h, 125 g ai/ha, postemergence, visual injury vs untreated controls after approx. 10 d; 0 = no effect, 100 = complete control; read-out: Foxtail, Giant plant response rating (0 to 100 scale)
# Description: […]
# pest or weed control at 125 g/ha >= 70% gives y, anything below gives n

                                   compound  class_assignment
0  O=C1NC[C@H](c2ccc(C(F)(F)F)cc2)C1C(=O)Nc1c(F)cccc1CO (stereo partly shown) [Compound 1243]                 n
1  CN1C[C@H](c2ccc(C(F)(F)F)cc2)[C@@H](C(=O)Nc2ccccc2)C1=O [Compound 1253]                 y
2  O=C1NC[C@H](c2csc3c2CCC3)[C@H]1C(=O)Nc1cccc(F)c1F [Compound 1164]                 n
3  CN1C[C@H](c2ccc(C#N)cc2)[C@@H](C(=O)Nc2ccc(F)c(F)c2F)C1=O [Compound 1229]                 y
4  Cc1ccc([C@H]2CCN(C)C(=O)[C@@H]2C(=O)Nc2cccc(Cl)c2F)cc1 [Compound 1223]                 y

# ---- query compound ----
input: Reported pest or weed control at 125 g/ha reaches at least 70% for Cc1ccc([C@H]2CN(C)C(=O)[C@@H]2C(=O)Nc2cccc(C#N)c2F)cc1 [Compound 1188] ?
output: y
